Tested on: HCC 2998
Assay: NCI tumour cell line growth inhibition, 48 h
Activity calls are given as the source filed them. Rule as the data show it: active = GI50 up to about 1.1 µM and inactive = higher.
Consider the following compounds; for each one, report its GI50.

Worked cases, answers included:
Exam item: Return GI50 for the following compound: COC(=O)/C=C(/C(=O)OC)c1c(C)cc2c(C)cc(C)cc(C)c1-2
Marked response: 16.4 µM (inactive)

Exam item: Tell me GI50 reported for COc1cc(/C=N/N=C(\N)NO)cc(Cl)c1O
Marked response: 45.3 µM (inactive)

Exam item: Give GI50 for the following compound: CCCC(=O)N[C@@H](Cc1cc(I)c(O)c(I)c1)C(=O)NCCCNCCCCNCCCNC(=O)[C@@H](N)CCCN=C(N)N
Marked response: 42.3 µM (inactive)

Exam item: Determine its reported GI50: CCCCCC(C(O)C#N)C(O)(C(F)(F)F)C(F)(F)F (stereo not given)
Marked response: > 10 µM (inactive)

Exam item: Assign GI50 to the following record: Fc1ccc(C2SCc3nc4ccccc4n32)cc1F (stereo not given)
Marked response: 37.6 µM (inactive)

For the 3 compounds below, give their GI50 values.
1. COc1cccc(-c2cc(O)c3cc(N4CCN(C)CC4)ccc3n2)c1
2. CC(CC(=O)Nc1ccc(NC(=O)CC(C)/N=N\C(N)=O)cc1)/N=N\C(N)=O (stereo not given)
3. O=C1c2ccccc2C(=O)N1C/C=N/NS(=O)(=O)c1ccc(Cl)cc1

Marked response:
1. 2.01 µM (inactive)
2. > 100 µM (inactive)
3. > 100 µM (inactive)

Hi, could you look up GI50 for each item in my list?
1. CCN(CC)CCOc1ccc(C(O)(Cc2ccc(OC)cc2)c2ccccc2)cc1 (stereo not given)
2. CC(=O)OCC1(C)C(O)CCC2(C)C1CCC1CC3CC12CCC3(O)CO (stereo not given)

Marked response:
["14 µM (inactive)", "20.8 µM (inactive)"]

The measurements presented in this section are drawn from ChEMBL document CHEMBL1201862.
